B1: glmS ribozyme (parent)
chain: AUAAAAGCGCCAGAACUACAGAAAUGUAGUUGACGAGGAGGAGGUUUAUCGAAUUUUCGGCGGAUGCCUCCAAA

Variants of: B1
procedure-text: self-cleavage kobs at 10000 uM GlcN6P; higher = faster cleavage; RNA array
condition-info: with glucosamine-6-phosphate
This sample holds only a part of the variants without activity.
property: self-cleavage kobs at 10000 uM GlcN6P (s⁻¹)

AUAAAAGCGCCAGAACUACAGAAAUGUAGUUGACGAGGAGCAGGUGUAUCGAAUUUUCGGCGGAUGCCUCCAAA | 9.41e-05
AUAAAAGCGCCAGAACUACAGAAAUGUAGUUGACGAGGAGGAGGAUUAUCGAAUUUUCGGCGGAUGCCUCUAAA | 0.0584
AUAAAAGCGCCAGAACUACAGAAAUGUAGUGGACGAGGAGGAGGUUUAUCGAAUGCUCGGCGGAUGCCUCCAAA | 0.000948
AUAAAAGCGCCAGUACUACAGAAAUGUAGUUGACGAGGAGGAGGUUCAUCGAAUUUUCGGCGGAUGCCUCCAAA | 0.000442
AUAAAAGCGCCAGAACUACAGAAAUGUAGUUGACGAGGAGUAGGUUUAUCGAAUUAUCGGCGGAUGCCUCCAAA | 0.00153
AUAAAAGCGCCAGAACUACAGAAAUGUAUUUGACGAGGAGGAGGUGUAUCGAAUUUUCGGCGGAUGCUUCCAAA | 0.000229
AUAAAAGCGCCAGGACUACAGAAAUGUAGUUGACGAGGAGGAGGUUUAUCGAAUGUUCGGCGGAUGCCACCAAA | 0.000104
AUAAAAGCGCCACAACUACAGAAAUGUAGUUGACGAGGAGGAGGUUUAUCGAAUGUUGGGCGGAUGCCUCCAAA | 4.29e-05
AUAAAAGCGCCAGAAUUACAGAAAUGUAGUUGACGAGGAGGAGGUUUAUCGAAUUUUCGGCGGAUGUCUCCAAA | 0.0126
AUAAAGGCGCCAGGACUACAGAAAUGUAGUUGACGAGGCGGAGGUUUAUCGAAUUUUCGGCGGAUGCCUCCAAA | 0.000209
AUAAAAGCGCCAGAACUACAGAAAUGUACUUGACGAGGAGGAGGAAUAUCGUAUUUUCGGCGGAUGCCUCCAAA | 3.37e-05
AUAAAAGCGCCAGAACUACAGAAAUGUAGUUCACGAGGAGGAGGUUUAUCGAAUUUUCGGCGGAUGGCUCCAAA | 1.85e-05
AUAAAAGCGCCAGAACUACAGAAAUGUAGUUGACGAGGAGGAGGUCUAUCGAAUUUUCGGCGGAUGCCUUCAAA | 0.00508
AUAAAAGCGCCAGAACUACAGAAAUGUAGUCGACGAGGAGGAGGUUUAUCGAAUGUUCGGCGGAUGCCUCCAAA | 0.00547
AUAAAAGCGCCAGAACUACAGAAAUGUAGUUCACGAGGAGGAGGUUUAUCGAAUUAUCGGCGGAUGCCUCAAAA | 3.09e-05
AUAAAAGCGCCAGAACUACAGAAAUGUAGCUGACGAGGAGGAGGUUUAUCGAAUUUUCGGCGGAUGCCUUCAAA | 0.000536
AUAAAAGCGCCAGCACUACAGAAAUGUAGUUGACGAGGAGGAGGCUUAUCGAAUUUUCGGCGGAUGCCUCCAAA | 0.000368
AUAAAAGCGCCAGAACUACAGAAAUGUAGUUGACGAGGAGGAGGUUUAUCGAAUCUUCGGCGGAUCCCUCCAAA | 0.000913
AUAAAAGCGCCAGAACUACAGAAAUGUAGUUGACGAGGAGGAGGUUUAUCGAAAUUUGGGCGGAUGCCUCCAAA | 0.000123
AUAAAAGCGCAAGAACUACAGAAAUGUAGUUGACGAGGAGGAGGUUUAUCGAAUUUUCGGAGGAUGACUCCAAA | 7.62e-05
AUAAAAGCGCCAGAACUACAGAAAUGUAGUUGACGAGGUGUAGGUUUAUCGAAUUUUCGGCGGAUGCCUCCAAA | 0.000489
AUAAACGCGCCAGAACUACAGAAAUGUAGUAGACGAGGAGGAGGUUUAUCGAAUUUUCGGCGGAUGCCUCCAAA | 3.99e-05
AUAAAAGCGCAAGAACUACAGAAAUGUAGUUGACGAGGAGGAGGUUUAUCGAAUUUUCGGCGGAUGUCUCGAAA | 4.96e-05
AUAAAAGCGCCAGAUCUACAGAAAUGUAGUUGACGAGGAGGAGGUUUAUCGAAUUUUCGGCGGAUGCUUCCAAA | 0.000409
AUAAAAGCGCCAGAACUACAGAAAUGUAUUCGACGAGGAGGAGGUUUAUGGAAUUUUCGGCGGAUGCCUCCAAA | 5.39e-05
AUAAAAGCGCCAGAACUACAGAAAUGUAGUUGACGAGGUGGAGGUUUAUCGAAUUUUCGGCGGAUGACUUCAAA | 0.00654

Numbers sourced from the supplement of paper PMC7125110.
